# TEST METHOD NOTES: Solubility of nomegestrol acetate in solvent mixtures
# Type: physicochemical
# ASSAY SETUP: 95° ethanol/water binary mixture, aqueous with cosolvent or surfactant or cyclodextrin, 95° ethanol/water binary mixture, 40% 95° ethanol; read-out: Solubility of nomegestrol acetate
MEASURED PROPERTY: solubility (µg/mL)
Give bare numbers, in µg/mL.

Return reported solubility; argument: CC(=O)O[C@]1(C(C)=O)CC[C@H]2[C@@H]3C=C(C)C4=CC(=O)CC[C@@H]4[C@H]3CC[C@@]21C [nomegestrol acetate] 2820

* * *

# TEST METHOD NOTES: Solubility of nomegestrol acetate in solvent mixtures
# Type: physicochemical
# ASSAY SETUP: ethanol/water/propyleneglycol ternary mixture, aqueous with cosolvent or surfactant or cyclodextrin, System I (Ethanol 95° 30%/Demineralized water 70%), 12% propyleneglycol; read-out: Solubilities
MEASURED PROPERTY: solubility (mg/mL)
Numbers only, in mg/mL.

Return reported solubility; argument: CC(=O)O[C@]1(C(C)=O)CC[C@H]2[C@@H]3C=C(C)C4=CC(=O)CC[C@@H]4[C@H]3CC[C@@]21C [nomegestrol acetate] 1.1

Data provenance is patent US20080227763A1.
